The reported numbers originate from patent USRE44022.

- TARGET OR SYSTEM: T1, KDR receptor (VEGFR-2) (UniProt P35968 20-1356, limits assumed)
- T1 construct: whole, on cells; also called kinase domain receptor; VEGF receptor
- T1 sequence (P35968 20-1356 limits assumed): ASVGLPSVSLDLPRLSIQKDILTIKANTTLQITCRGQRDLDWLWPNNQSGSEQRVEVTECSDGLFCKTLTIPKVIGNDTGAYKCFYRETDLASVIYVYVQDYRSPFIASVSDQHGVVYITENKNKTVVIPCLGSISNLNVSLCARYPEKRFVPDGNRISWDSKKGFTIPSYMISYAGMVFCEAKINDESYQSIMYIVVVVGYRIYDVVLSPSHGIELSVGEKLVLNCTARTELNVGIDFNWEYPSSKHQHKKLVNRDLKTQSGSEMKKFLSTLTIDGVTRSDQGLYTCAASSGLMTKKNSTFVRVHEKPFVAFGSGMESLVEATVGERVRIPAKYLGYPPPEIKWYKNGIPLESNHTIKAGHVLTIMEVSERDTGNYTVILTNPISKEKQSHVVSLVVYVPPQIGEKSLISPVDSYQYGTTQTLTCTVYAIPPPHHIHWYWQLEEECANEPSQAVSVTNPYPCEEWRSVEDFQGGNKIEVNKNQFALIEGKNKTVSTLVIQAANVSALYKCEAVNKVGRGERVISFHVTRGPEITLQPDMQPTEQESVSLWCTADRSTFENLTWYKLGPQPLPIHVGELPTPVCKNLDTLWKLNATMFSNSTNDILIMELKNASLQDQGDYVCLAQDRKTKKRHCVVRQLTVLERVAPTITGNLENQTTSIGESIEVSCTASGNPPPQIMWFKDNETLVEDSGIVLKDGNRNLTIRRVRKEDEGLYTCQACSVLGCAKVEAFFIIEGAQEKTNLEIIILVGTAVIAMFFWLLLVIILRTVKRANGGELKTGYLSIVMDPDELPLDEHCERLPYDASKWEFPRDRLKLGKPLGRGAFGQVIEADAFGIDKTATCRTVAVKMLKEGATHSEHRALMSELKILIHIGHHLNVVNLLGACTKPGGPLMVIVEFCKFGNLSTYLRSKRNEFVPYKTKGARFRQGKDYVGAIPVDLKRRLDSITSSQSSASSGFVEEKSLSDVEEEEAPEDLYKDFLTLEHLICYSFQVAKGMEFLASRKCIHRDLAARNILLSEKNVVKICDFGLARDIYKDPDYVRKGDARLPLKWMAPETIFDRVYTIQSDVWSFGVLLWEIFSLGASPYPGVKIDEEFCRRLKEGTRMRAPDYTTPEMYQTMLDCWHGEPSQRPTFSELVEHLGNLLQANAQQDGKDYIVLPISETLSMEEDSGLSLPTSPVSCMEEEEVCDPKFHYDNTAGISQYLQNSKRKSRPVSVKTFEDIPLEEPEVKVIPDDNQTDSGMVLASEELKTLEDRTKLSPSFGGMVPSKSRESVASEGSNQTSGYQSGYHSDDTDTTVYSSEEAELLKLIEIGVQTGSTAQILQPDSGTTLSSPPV
- MEASUREMENT DESCRIPTION: displacement of 125I-VEGF from CHOm VEGFR2 cells
Square brackets hold non-standard residues; d marks the D form.
I'd appreciate it if you could supply IC50 values for the items below.
One number for each entry, in µM.

Observe how each entry below is paired with its result.
BINDER	UNITS SYMBOL	ENDPOINT RESULT
PRIKPHQG (cyclic (cyclo, ends of the linear peptide coupled), Cyclopeptide) [P17]	µM	10
cyclo([dF]PQIMRIKPHQGQHIGE) (SMILES CC[C@H](C)[C@@H]1NC(=O)[C@H](Cc2c[nH]cn2)NC(=O)[C@H](CCC(N)=O)NC(=O)CNC(=O)[C@H](CCC(N)=O)NC(=O)[C@H](Cc2c[nH]cn2)NC(=O)[C@@H]2CCCN2C(=O)[C@H](CCCCN)NC(=O)[C@H]([C@@H](C)CC)NC(=O)[C@H](CCCNC(=N)N)NC(=O)[C@H](CCSC)NC(=O)[C@H]([C@@H](C)CC)NC(=O)[C@H](CCC(N)=O)NC(=O)[C@@H]2CCCN2C(=O)[C@@H](Cc2ccccc2)NC(=O)[C@H](CCC(=O)O)NC(=O)CNC1=O, Cyclopeptide; 6); also called P11 (cyclic) peptide) [P11]	µM	2
PRIKPHQGQH (cyclic (cyclo, ends of the linear peptide coupled), Cyclopeptide) [P9]	µM	300
RIKPHQG (cyclic (cyclo, ends of the linear peptide coupled), Cyclopeptide; also called cyclo(Arg-Ile-Lys-Pro-His-Gln-Gly)) [P16]	µM	32

Query: IC50; subject: cyclo([dF]PQIMRIKPHQGQHIG) (SMILES CC[C@H](C)[C@@H]1NC(=O)[C@H](Cc2c[nH]cn2)NC(=O)[C@H](CCC(N)=O)NC(=O)CNC(=O)[C@H](CCC(N)=O)NC(=O)[C@H](Cc2c[nH]cn2)NC(=O)[C@@H]2CCCN2C(=O)[C@H](CCCCN)NC(=O)[C@H]([C@@H](C)CC)NC(=O)[C@H](CCCNC(=N)N)NC(=O)[C@H](CCSC)NC(=O)[C@H]([C@@H](C)CC)NC(=O)[C@H](CCC(N)=O)NC(=O)[C@@H]2CCCN2C(=O)[C@@H](Cc2ccccc2)NC(=O)CNC1=O, Cyclopeptide) [P20]
10
